These data points were gathered from patent US9527869B2.

Each entry below carries its reported IC50.
# SYSTEM_NAME: PI3Kα (Homo sapiens, UniProt P42336)
# Sequence (P42336 whole entry): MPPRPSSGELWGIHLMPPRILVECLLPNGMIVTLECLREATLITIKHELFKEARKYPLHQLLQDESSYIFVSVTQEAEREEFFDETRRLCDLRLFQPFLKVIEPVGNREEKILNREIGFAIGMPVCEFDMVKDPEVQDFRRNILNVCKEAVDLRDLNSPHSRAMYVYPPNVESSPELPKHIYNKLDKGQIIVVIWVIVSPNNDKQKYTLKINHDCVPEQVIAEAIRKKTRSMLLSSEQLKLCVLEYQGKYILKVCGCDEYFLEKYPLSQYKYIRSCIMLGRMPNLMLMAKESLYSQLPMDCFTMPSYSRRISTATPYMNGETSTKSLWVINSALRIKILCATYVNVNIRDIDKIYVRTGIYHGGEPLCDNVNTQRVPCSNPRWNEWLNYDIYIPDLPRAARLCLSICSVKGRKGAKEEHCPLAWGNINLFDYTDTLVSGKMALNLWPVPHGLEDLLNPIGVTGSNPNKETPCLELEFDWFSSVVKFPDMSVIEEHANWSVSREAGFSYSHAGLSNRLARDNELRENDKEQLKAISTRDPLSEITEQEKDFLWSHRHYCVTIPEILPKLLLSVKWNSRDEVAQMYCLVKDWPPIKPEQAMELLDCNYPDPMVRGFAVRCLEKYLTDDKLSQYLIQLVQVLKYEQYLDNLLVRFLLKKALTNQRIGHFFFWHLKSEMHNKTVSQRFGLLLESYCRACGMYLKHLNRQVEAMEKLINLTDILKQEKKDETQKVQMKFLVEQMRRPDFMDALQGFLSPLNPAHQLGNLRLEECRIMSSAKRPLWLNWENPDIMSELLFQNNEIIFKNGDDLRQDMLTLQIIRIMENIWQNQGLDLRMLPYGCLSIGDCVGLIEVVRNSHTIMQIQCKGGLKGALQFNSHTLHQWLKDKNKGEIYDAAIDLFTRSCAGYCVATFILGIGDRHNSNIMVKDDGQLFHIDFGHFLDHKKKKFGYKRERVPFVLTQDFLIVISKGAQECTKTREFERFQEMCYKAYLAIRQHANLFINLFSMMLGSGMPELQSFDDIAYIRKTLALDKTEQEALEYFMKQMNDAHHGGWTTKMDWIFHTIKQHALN
# Sequence (P27986 whole entry partner): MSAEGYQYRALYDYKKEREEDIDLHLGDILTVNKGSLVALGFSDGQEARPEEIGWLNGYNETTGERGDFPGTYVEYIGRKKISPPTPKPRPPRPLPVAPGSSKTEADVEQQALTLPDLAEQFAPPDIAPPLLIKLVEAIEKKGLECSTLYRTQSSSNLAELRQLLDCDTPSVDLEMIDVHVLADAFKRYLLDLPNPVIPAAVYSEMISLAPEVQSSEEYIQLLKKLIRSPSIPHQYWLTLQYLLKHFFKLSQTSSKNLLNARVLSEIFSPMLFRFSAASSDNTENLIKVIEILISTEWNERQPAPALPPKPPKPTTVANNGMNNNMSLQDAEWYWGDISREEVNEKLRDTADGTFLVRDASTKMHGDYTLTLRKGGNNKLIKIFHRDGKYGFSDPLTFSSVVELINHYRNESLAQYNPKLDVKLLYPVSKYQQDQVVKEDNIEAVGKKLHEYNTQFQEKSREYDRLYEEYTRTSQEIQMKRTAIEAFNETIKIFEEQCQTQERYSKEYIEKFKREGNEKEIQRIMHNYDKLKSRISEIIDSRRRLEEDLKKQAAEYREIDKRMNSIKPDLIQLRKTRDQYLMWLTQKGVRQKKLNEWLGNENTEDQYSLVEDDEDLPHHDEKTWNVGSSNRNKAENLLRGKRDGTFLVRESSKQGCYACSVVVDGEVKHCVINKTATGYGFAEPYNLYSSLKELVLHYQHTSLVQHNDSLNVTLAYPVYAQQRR
# TEST_DESCRIPTION: In vitro determination of the PI3K enzyme inhibitory activity in the cell free assay (ADP-Glo Kinase Assay), PI3Kα
# COND: ATP 50 μM, read-out: PI3K alpha inhibition

Solved cases below.
CC(c1cc2ccccn2c1CN1CC2(CCN(C)CC2)C1)n1nc(-c2cc(O)cc(F)c2)c2c(N)ncnc21 (centres unmarked)	0.01 to 1 µM
CCCC#Cc1c(C(C)Nc2ncnc(N)c2C#N)cc2ccccn12 (centres unmarked)	> 1 µM
CC(c1cc2ccccn2c1N1CCN(C)CC1=O)n1nc(-c2cc(O)cc(F)c2)c2c(N)ncnc21 (centres unmarked)	0.01 to 1 µM

// next item, IC50 requested
Task: // IC50 lookup, key: CC(Nc1ncnc(N)c1C#N)c1cc2ccccn2c1C1=CCOCC1 (centres unmarked)
Result: > 1 µM
